Origin of measurements: PubChem BioAssay AID624296

Experiment: A quantitative high throughput screen for small molecules that induce DNA re-replication in MCF 10a normal breast cells. Note: nearly all actives have a fitted effect of over 50% in size.
Conditions: MCF 10A DNA re-replication, Hoechst nuclear intensity, 48 h; series mostly up to 46.1 µM
From the text: H Molecular Libraries Probe Production Network [MLPCN] NIH Chemical Genomics Center [NCGC] Assay Provider: Melvin DePamphilis, NICHD, NIH Eukaryotic cells normally restrict genome duplication to once per cell division. […] To identify compounds that induce re-replication in normal cells, an image-based assay was used to measure DNA content of nuclei, as detected by the fluorescent DNA binding dye, Hoechst. […]
Hit rate of the full screen: of about 350,000 compounds, about 9,900 (2.8%) were called active. Roughly 15% stayed inconclusive and do not appear here. Calls come from the whole dose curve; as a rule, active = well fitted activation curve with a large enough effect; inconclusive = small, poorly fitted or top-dose-only effect; inactive = no such curve, though single readings can be large or run the other way. What follows is part of a selection rich in actives, with near analogues and random picks from the rest.
Classes used: yes for active, no for inactive

- compound: "O=C(/C=C/c1ccc([N+](=O)[O-])o1)NNC(=O)c1ccc(F)cc1"
  class-label: "yes"
- compound: "CC1(C)Cc2c(cnn2-c2cccc(F)c2)C(NC(=O)c2cc[n+]([O-])cc2)C1 (stereo not given)"
  class-label: "no"
- compound: "O=c1ccn([C@@H]2O[C@H](CNS(=O)(=O)c3cc4ccccc4s3)[C@@H](O)[C@H]2O)c(=O)[nH]1"
  class-label: "no"
- compound: "Cc1c(C(=O)N/N=C/c2ccccc2)[nH]c2c([N+](=O)[O-])cccc12"
  class-label: "yes"
- compound: "CC1CCCCC1NC(=O)/C(C#N)=C/C=C/c1ccccc1[N+](=O)[O-] (stereo not given)"
  class-label: "yes"
- compound: "Cc1cc(C)c(S(=O)(=O)c2ccccc2)c(OC(=O)c2c(F)cccc2Cl)n1"
  class-label: "yes"
- compound: "O=C(NNC(=O)C1CCCC1)c1ccc(F)cc1"
  class-label: "no"
- compound: "Cc1cc(C(=O)NC2CC(C)(C)Cc3c2cnn3-c2ccccc2)n[nH]1 (stereo not given)"
  class-label: "no"
- compound: "O=C(/C=C/c1ccccc1[N+](=O)[O-])NCC1CCCO1 (stereo not given)"
  class-label: "no"
- compound: "Cc1ccc(NNC(=O)c2c(F)cccc2Cl)cc1Cl"
  class-label: "no"

----------
Test: A quantitative high throughput screen for small molecules that induce DNA re-replication in MCF 10a normal breast cells. Note: nearly all actives have a fitted effect of over 50% in size.
Details: MCF 10A DNA re-replication, Hoechst nuclear intensity, 48 h; series mostly up to 46.1 µM
Source text: H Molecular Libraries Probe Production Network [MLPCN] NIH Chemical Genomics Center [NCGC] Assay Provider: Melvin DePamphilis, NICHD, NIH Eukaryotic cells normally restrict genome duplication to once per cell division. […] To identify compounds that induce re-replication in normal cells, an image-based assay was used to measure DNA content of nuclei, as detected by the fluorescent DNA binding dye, Hoechst. […]
Out of some 350,000 compounds screened, about 9,900 (2.8%) were called active. Roughly 15% stayed inconclusive and do not appear here. The call rests on the fitted dose curve; in most records, active means well fitted activation curve with a large enough effect; inconclusive means small, poorly fitted or top-dose-only effect; inactive means no such curve, though single readings can be large or run the other way. Many of the other results were omitted from the sample, so actives are more common in it than they were.
Labels: t for active, f for inactive

- compound: "COc1ccccc1N1CCN(S(=O)(=O)c2ccc(Cl)cc2)CC1"
  class-label: "f"
- compound: "COc1cc2[nH]c(O)c(C=O)c2cc1OC"
  class-label: "f"
- compound: "COc1ccc2[nH]c3c(c2c1)CCN1C(=O)C(CC(=O)NCc2cccc(C(F)(F)F)c2)C[C@H](C(=O)N2CCOCC2)[C@@]31C (stereo partly drawn)"
  class-label: "f"
- compound: "O=C(CN1CCc2ccccc2C1)Nc1cccc(S(=O)(=O)N2CCOCC2)c1"
  class-label: "f"
- compound: "O=c1c(Cl)c(NC2CC2)cnn1-c1ccccc1"
  class-label: "f"
- compound: "CCc1nc(C)cn1S(=O)(=O)c1cc(OC)c(C)cc1C"
  class-label: "f"
- compound: "O=C(NCC1CCCO1)c1ccc(S(=O)(=O)Nc2ccc(F)cc2)cc1 (stereo not drawn)"
  class-label: "f"
- compound: "O=C(COC(=O)COc1ccccc1F)Nc1cccc(S(=O)(=O)N2CCCCC2)c1"
  class-label: "f"
- compound: "Cc1cc(N2CCCC2)ccc1NC(=O)COc1ccc(Cl)cc1"
  class-label: "f"
- compound: "CC(=NNC(=O)c1ccc2nc[nH]c2c1)c1ccc(Br)cc1"
  class-label: "f"
- compound: "Fc1ccccc1-c1cc2cc3c(cc2cn1)OCO3"
  class-label: "f"
- compound: "COc1cc(C=O)c(Br)cc1OCC(=O)NCc1ccccc1"
  class-label: "f"
- compound: "CCOC(=O)C1=CN(Cc2ccc(Br)cc2)S(=O)(=O)NC1C (stereo not drawn)"
  class-label: "f"
- compound: "Cc1ccc(C(=O)Nc2ccc3c(c2)OCCO3)cc1S(=O)(=O)N1CCOCC1"
  class-label: "f"
- compound: "CCOC(=O)C1=C(C)NC(=O)NC1c1ccccc1 (stereo not drawn)"
  class-label: "f"
- compound: "COCC(=O)Nc1ccc(Br)cc1"
  class-label: "f"
- compound: "Cc1cc(C(=O)COc2ccccc2Cl)c(C)n1C1CC1"
  class-label: "f"
- compound: "CC(=O)NC(CC(=O)Nc1ccc(S(=O)(=O)N2CCOCC2)cc1)c1ccccc1 (stereo not drawn)"
  class-label: "f"
- compound: "CN(C(=O)c1cccc(NC(=O)Cc2ccc(NC(=O)C3CCN(C(=O)C4CCCCC4)CC3)cc2)c1)C1CCC1"
  class-label: "f"
- compound: "CCCn1c(N)c(C(=O)CSc2nnc3n2CCCCC3)c(=O)[nH]c1=O"
  class-label: "f"
- compound: "OCc1ccc(-c2ccccc2)c(-c2ccccc2)c1"
  class-label: "t"
- compound: "OCc1nc(CO)n(Cc2ccccc2)n1"
  class-label: "f"
- compound: "Cn1c(N)c(C(=O)COC(=O)c2cccc(S(=O)(=O)N3CCOCC3)c2)c(=O)n(C)c1=O"
  class-label: "f"
- compound: "Cc1ccc(NC(=O)CC2S/C(=N/N=C3\\CCCc4ccccc43)NC2=O)cc1 (stereo not drawn)"
  class-label: "t"
- compound: "NC(=O)NCCCC(=O)O"
  class-label: "f"
- compound: "CC(C)Oc1ccc(CC(=O)NNC(=S)Nc2ccc(Br)cc2)cc1"
  class-label: "t"
- compound: "COc1ccc(S(=O)(=O)N2CCOCC2)cc1NC(=O)CSc1nnc(NC2CC2)s1"
  class-label: "f"
- compound: "FC(F)(F)c1cc(-c2ccco2)nc(NCc2ccc(Cl)cc2)n1"
  class-label: "t"
- compound: "CCOC(=O)C1=C(CN2CCc3ccccc32)NC(=O)NC1c1ccc(Cl)cc1 (stereo not drawn)"
  class-label: "t"
- compound: "CC[C@]12c3[nH]c4ccc(OC)cc4c3CCN1C(=O)C(CC(=O)NCCN1CCOCC1)C[C@@H]2C(=O)N1CCN(C(=O)C2CC2)CC1 (stereo partly drawn)"
  class-label: "f"
- compound: "CCc1nc(C)cn1S(=O)(=O)c1cc([N+](=O)[O-])ccc1Cl"
  class-label: "t"
- compound: "CN(CC(=O)NC1CCN(Cc2ccccc2)CC1)S(=O)(=O)c1ccc(Cl)s1"
  class-label: "f"
- compound: "Cc1cccc(-n2ncc(C#N)c2-n2cccc2)c1"
  class-label: "f"
- compound: "OCC(CO)(CO)NCc1ccc(-c2ccccc2)cc1"
  class-label: "f"
- compound: "O=C(Nc1cccc(S(=O)(=O)NC2=NCCC2)c1)c1ccc(F)cc1F"
  class-label: "f"
- compound: "CCOC(=O)C1=C(CN2CCc3ccccc32)NC(=O)NC1c1cccc([N+](=O)[O-])c1 (stereo not drawn)"
  class-label: "f"
- compound: "Cc1ccc(NC(=O)COC(=O)C2CC2)cc1S(=O)(=O)N1CCOCC1"
  class-label: "f"
- compound: "CCCC(CNC(=O)COC(=O)C1=NNC(=O)CC1)c1ccc(Cl)cc1Cl (stereo not drawn)"
  class-label: "f"
- compound: "COc1ccc(NC(=O)/C(C#N)=C\\c2cc(OC)c(OCc3ccc(C(=O)O)cc3)cc2Br)cc1"
  class-label: "t"
- compound: "CCC(=O)N(Cc1cc2cc(OC)ccc2[nH]c1=O)c1ccccc1C"
  class-label: "f"
- compound: "CC(=O)c1cccc(OCC(=O)OCC(=O)Nc2cc(S(=O)(=O)N3CCCCC3)ccc2C)c1"
  class-label: "f"
- compound: "COc1cc(/C=C(\\C#N)C(=O)Nc2ccc3ccccc3c2)c([N+](=O)[O-])cc1OC"
  class-label: "f"
- compound: "O=C(c1cc2ccccc2o1)N1CCN(S(=O)(=O)c2ccc(Cl)s2)CC1"
  class-label: "f"
